This collection of values is drawn from patent US20080181886A1.

TARGET_OF_ASSAY: human BAFF (human, UniProt Q9Y275 82-285, limits assumed)
Sequence (Q9Y275 82-285 limits assumed): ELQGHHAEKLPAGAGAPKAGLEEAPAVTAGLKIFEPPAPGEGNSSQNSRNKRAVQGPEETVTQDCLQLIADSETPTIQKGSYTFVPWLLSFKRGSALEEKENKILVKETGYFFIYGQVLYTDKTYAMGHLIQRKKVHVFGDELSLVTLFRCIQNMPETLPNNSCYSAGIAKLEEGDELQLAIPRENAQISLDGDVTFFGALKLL
METHOD_DESCRIPTION: NNS library, phage display;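 further: ligand versus display occurrence-to-degeneracy ratio and higher means enriched by binding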
READOUT_TYPE: F' BAFF
// print number alone

Form: binder = SLSCRKEQGKFFDHLLRDCISCASICGQHPKQCAYFCENKLR (receptor, phage library variant, format as m9) [TACI_d2 Y79F] ; F' BAFF = 5

Form: binder = SLSCRKEQGKFCDHLLRDCISCASICGQHPKQCAYFCENKLR (receptor, phage library variant, format as m9) [TACI_d2 Y79C] ; F' BAFF = 0

Form: binder = SLSCRKEQGKDYDHLLRDCISCASICGQHPKQCAYFCENKLR (receptor, phage library variant, format as m9) [TACI_d2 F78D] ; F' BAFF = 0
